What Km was measured for each of the following?
Tested on: RcFLS1
Construct: gene FLS1; N-terminal MBP fusion (pMAL-c2X), E. coli BL21(DE3), amylose resin
Assay text: HPLC product assay, Michaelis-Menten fit
Assay type: biochemical, Rubus chingii
Stated conditions: 100 mM Tris-HCl pH 7.5, 10 mM ascorbate, 10 μM FeSO4, 10 mM 2-oxoglutarate, catalase, 30 °C; kcat unit is 10^-3 s^-1
Give bare numbers, in µM.

1. O=C1c2c(O)cc(O)cc2O[C@H](c2ccc(O)c(O)c2)[C@H]1O [DHQ, Dihydroquercetin] :: 56.9

Quick batch: Km for everything below.
1. O=C1C[C@@H](c2ccc(O)c(O)c2)Oc2cc(O)cc(O)c21 [E, Eriodictyol]
2. O=C1c2c(O)cc(O)cc2O[C@H](c2ccc(O)cc2)[C@H]1O [DHK, Dihydrokaempferol]
3. O=C1C[C@@H](c2ccc(O)cc2)Oc2cc(O)cc(O)c21 [N, Naringenin]

1. 34.5
2. 33.9
3. 43.6
